Answer each item with its documented inhibition.
Assay Method Text: PhoP regulon inhibitors, Salmonella typhi PhoP promoter GFP reporter, confirmatory (AID 1850);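 further: 0% = induced wells with vehicle and 100% = uninduced wells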
Particulars: fluorescence, 4 h, at 50 µM, stronger effect = higher value
About 1,000 (0.32%) of roughly 310,000 compounds were called active. A selection follows. Entries with a potency or affinity are not part of this list.
Give bare numbers, in %.

Completed entries (count: 3):
Cc1ccc(C(=O)Nc2ccccc2Sc2ccccc2)cc1 : 8.29
O=C(COC(=O)C1CCN(c2ccc(C(F)(F)F)cn2)CC1)NCc1ccc(F)cc1 : 2.12
O=C(CNS(=O)(=O)/C=C/c1ccccc1)OC1CCOC1=O (centres undefined) : -7.99

Working through the 3 compounds below one at a time, give inhibition for each.
1. NS(=O)(=O)c1cccc(NC(=O)CC23CC4CC(C2)CC(CC(=O)Nc2cccc(S(N)(=O)=O)c2)(C4)C3)c1
2. Fc1ccc(CCNCc2cccc(Cl)c2)cc1
3. Oc1c(Br)cccc1/C=N/c1ncn[nH]1

1: 4.03; 2: -1.17; 3: -5.35

Provide inhibition values for the following items, in order.
1. CCc1nnc(NC(=O)Nc2ccccc2OC)s1
2. Cc1c(CCOC(=O)c2ccccc2)sc[n+]1CC(=O)c1ccc(Br)cc1
3. Cc1ccc2c(c1)[C@@H]1CN(C)CC[C@@H]1N2S(=O)(=O)c1ccc([N+](=O)[O-])cc1
4. OCCNc1nc(Nc2ccccc2Cl)nc(N2CCCC2)n1
5. CCCCOC(=O)c1ccc(NC(=O)COC(=O)CSc2nc(C)cc(C)n2)cc1
6. Oc1c(Cl)cc(Cl)cc1/C=N/c1ncn[nH]1

1. 1.12
2. -8.05
3. 0.95
4. -6.06
5. -5.18
6. 3.2

Each compound below has a reported value. Please supply its inhibition.
1. O=C(Nc1c(Cl)ccc2nsnc12)c1ccco1
2. Oc1ccccc1N=N/C(=N/Nc1ccccc1O)c1ccccc1
3. CSc1ccccc1C(=O)Nc1cc(C)ccc1C
4. Cc1ccccc1NC(=O)c1ccccc1O
5. O=C(Nc1ccccc1F)Oc1cccc(OC(=O)Nc2ccccc2F)c1
6. Cc1onc(-c2ccccc2)c1C(=O)OCC(=O)N(CC(C)C)c1c(N)n(Cc2ccccc2)c(=O)[nH]c1=O
7. Cc1cc(NCCO)c2ccccc2n1
8. Cc1ccc(N2N=C(c3ccc(F)cc3)CC2c2ccco2)cc1 (centres undefined)

1: -5.33; 2: -5.08; 3: 7.98; 4: 4.26; 5: 5.4; 6: 0.02; 7: -12.1; 8: -33.1
